experiment-description: Proteolysis during production detected using mass spectroscopy
Type: physicochemical
test-conditions: proteolytic stability
Description: Proteolysis during production was detected using mass spectroscopy, which provides insights into the proteolytic stability of the apelin receptor agonists.
parameter: Proteolysis During Production?

Would you mind telling me what Proteolysis During Production? value was observed for ELA-K: Fc-linker fusion of elabela analogue KLRKHNCLIRRCMPLHSRVPFP (Q9I) (protein) MRAWIFFLLCLAGRALADKTHTSPPSPAPEAAGGPSVFLFPPKPKDTLMISRTPEVTCVVVDVSHEDPEVKFNWYVDGVEVHNAKTKPREEQYNSTYRVVSVLTVLHQDWLNGKEYKCKVSNKALPAPIEKTISKAKGQPREPQVYTLPPSREEMTKNQVNLTCLVKGFYPSDIAVEWESNGQPENNYKTTPPVLDSDGSFFLNSTLTVDKSRWQQGNVFSCSVMHEALHNHYTQKSLSLSPGKGGGGSGGGGSGGGGSKLRKHNCLIRRCMPLHSRVPFP ?
No
